Assay target: Lysine-specific demethylase 4A (Homo sapiens)
Sequence (O75164 whole entry): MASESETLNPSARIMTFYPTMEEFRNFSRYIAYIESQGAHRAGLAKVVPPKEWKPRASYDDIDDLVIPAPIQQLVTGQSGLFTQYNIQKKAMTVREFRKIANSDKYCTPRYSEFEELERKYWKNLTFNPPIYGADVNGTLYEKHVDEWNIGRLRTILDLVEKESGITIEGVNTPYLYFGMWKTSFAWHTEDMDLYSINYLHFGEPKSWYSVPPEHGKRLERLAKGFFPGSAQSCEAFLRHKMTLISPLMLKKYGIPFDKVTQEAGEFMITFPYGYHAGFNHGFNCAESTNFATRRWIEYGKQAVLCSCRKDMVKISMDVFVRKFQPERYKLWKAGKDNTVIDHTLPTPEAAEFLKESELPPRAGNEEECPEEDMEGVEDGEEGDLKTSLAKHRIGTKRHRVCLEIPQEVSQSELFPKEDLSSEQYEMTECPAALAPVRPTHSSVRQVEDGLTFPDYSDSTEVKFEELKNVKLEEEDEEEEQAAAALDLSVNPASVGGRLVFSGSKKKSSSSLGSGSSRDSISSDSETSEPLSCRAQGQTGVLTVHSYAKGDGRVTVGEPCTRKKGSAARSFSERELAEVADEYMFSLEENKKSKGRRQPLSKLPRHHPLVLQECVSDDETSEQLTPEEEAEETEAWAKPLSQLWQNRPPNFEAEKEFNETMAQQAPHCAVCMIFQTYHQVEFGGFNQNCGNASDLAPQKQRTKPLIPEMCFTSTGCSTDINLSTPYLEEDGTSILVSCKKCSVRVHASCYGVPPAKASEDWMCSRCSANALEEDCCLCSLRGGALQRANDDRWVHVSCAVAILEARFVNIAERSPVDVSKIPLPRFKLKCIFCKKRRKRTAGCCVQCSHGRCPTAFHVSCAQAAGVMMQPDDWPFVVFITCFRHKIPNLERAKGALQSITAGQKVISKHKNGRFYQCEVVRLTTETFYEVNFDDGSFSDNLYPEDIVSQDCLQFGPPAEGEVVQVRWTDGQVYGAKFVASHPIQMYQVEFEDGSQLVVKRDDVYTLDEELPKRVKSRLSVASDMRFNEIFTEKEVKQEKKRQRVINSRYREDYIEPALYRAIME
Assay summary: Inhibition of KDM4A (unknown origin) measured by LANCEUltra assay
pIC50: −log10 of the molar value.
pIC50 by entry:

- Molecule: "O=C(O)c1ccc(-n2nc(-c3ccccc3O)nc2-c2ccccc2O)cc1 [DEFERASIROX]"
  pIC50: 5.48
- Molecule: "CC(=O)N(O)CCCCCNC(=O)CCC(=O)N(O)CCCCCNC(=O)CCC(=O)N(O)CCCCCN [DEFEROXAMINE]"
  pIC50: 5.48
- Molecule: "Cc1c(O)c(=O)ccn1C [DEFERIPRONE]"
  pIC50: 5.48

----------
Assay target: Lysine-specific demethylase 4C (Homo sapiens, UniProt Q9H3R0)
Sequence (Q9H3R0 whole entry): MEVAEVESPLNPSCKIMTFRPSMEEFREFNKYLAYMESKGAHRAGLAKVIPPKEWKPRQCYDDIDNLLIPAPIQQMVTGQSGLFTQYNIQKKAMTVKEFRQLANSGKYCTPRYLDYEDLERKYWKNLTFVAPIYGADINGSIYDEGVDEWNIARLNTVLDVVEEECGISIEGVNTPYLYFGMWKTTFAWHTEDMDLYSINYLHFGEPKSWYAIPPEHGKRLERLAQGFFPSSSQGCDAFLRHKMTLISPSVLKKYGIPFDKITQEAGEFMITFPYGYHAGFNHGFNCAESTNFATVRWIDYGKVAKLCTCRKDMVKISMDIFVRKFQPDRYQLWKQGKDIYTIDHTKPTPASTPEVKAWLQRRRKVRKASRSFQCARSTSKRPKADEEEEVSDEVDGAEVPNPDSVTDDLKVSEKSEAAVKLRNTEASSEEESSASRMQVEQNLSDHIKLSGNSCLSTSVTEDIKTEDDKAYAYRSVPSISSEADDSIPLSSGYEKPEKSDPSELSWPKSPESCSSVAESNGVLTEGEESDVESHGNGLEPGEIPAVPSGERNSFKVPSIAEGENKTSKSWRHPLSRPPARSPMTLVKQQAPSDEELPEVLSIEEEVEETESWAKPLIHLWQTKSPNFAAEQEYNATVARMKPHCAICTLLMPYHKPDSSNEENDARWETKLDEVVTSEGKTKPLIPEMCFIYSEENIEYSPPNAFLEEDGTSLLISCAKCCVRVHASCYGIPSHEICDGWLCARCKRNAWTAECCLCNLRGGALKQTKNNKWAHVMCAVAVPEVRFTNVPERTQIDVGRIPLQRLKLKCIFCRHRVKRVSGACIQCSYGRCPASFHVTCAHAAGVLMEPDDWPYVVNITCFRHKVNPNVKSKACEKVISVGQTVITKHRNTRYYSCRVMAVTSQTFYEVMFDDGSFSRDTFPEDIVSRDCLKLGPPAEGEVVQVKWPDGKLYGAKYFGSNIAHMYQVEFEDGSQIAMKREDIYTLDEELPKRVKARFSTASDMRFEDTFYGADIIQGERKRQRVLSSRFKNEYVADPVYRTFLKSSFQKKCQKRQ
Assay summary: Inhibition of human KDM4C measured by AlphaLISA assay
Measured endpoint: IC50 (µM)

- Smi: "O=C(O)c1cc(O)c(=O)c2c(O)c(O)cc(-c3ccccc3)c2c1"
  Unit symbol: "µM"
  Value measured: 24.4

----------
Assay target: UniProt:Q9H3R0
Assay summary: Inhibition of KDM4C (unknown origin) measured by AlphaScreen assay
Positions of bridges follow the written chain, without caps; N, C: chain ends. Non-standard residues stand in square brackets, D forms with d. Residues, ends and D or L forms follow the SMILES beside them.

- Molecule: "CO[C@H]1/C=C\\C=C(/C)C(=O)NC2=CC(=O)C(NCCN(C)C)=C(C[C@@H](C)C[C@H](OC)[C@H](O)[C@@H](C)/C=C(\\C)[C@@H]1OC(N)=O)C2=O (stereo in doubt)"
  IC50: "700 nM"
- Molecule: "CC[C@H](C)[C@@H]1NC(=O)CNC(=O)[C@H](CO)NC(=O)[C@H](CCCNC(=N)N)NC(=O)[C@H](CCCNC(=N)N)NC(=O)[C@H](Cc2ccccc2)NC(=O)[C@H](CCCNC(=N)N)NC(=O)[C@H]([C@@H](C)O)NC(=O)[C@@H](Cc2ccc(O)cc2)NC(=O)CSC[C@@H](C(N)=O)NC(=O)[C@H](Cc2ccc(O)cc2)NC(=O)[C@H](Cc2ccc(O)cc2)NC(=O)[C@H](Cc2ccccc2)NC(=O)[C@H](C(C)C)NC1=O ({CH2CO}-[dY]TRFRRSGIVFYYC-NH2; thioether N-14)"
  IC50: "2.2 nM"
- Molecule: "COC1=C2C[C@@H](C)C[C@H](OC)[C@H](O)[C@@H](C)/C=C(\\C)[C@H](OC(N)=O)[C@@H](OC)/C=C\\C=C(/C)C(=O)NC(=CC1=O)C2=O"
  IC50: "700 nM"
- Molecule: "CC(C)[C@@H]1NC(=O)[C@@H](Cc2ccc(O)cc2)NC(=O)CSC[C@@H](C(N)=O)NC(=O)[C@H]([C@@H](C)O)NC(=O)[C@H](Cc2ccc(O)cc2)NC(=O)[C@H](Cc2c[nH]c3ccccc23)NC(=O)[C@H](CCCNC(=N)N)NC(=O)[C@H](Cc2c[nH]c3ccccc23)NC(=O)CNC(=O)[C@H](CO)NC(=O)[C@H](CCCNC(=N)N)NC(=O)[C@H]([C@@H](C)O)NC(=O)[C@H](CC(N)=O)NC(=O)[C@H](Cc2ccc(O)cc2)NC1=O ({CH2CO}-[dY]VYNTRSGWRWYTC-NH2; thioether N-14)"
  IC50: "33 nM"

----------
Assay target: Lysine-specific demethylase 4B (Homo sapiens)
Sequence (O94953 whole entry): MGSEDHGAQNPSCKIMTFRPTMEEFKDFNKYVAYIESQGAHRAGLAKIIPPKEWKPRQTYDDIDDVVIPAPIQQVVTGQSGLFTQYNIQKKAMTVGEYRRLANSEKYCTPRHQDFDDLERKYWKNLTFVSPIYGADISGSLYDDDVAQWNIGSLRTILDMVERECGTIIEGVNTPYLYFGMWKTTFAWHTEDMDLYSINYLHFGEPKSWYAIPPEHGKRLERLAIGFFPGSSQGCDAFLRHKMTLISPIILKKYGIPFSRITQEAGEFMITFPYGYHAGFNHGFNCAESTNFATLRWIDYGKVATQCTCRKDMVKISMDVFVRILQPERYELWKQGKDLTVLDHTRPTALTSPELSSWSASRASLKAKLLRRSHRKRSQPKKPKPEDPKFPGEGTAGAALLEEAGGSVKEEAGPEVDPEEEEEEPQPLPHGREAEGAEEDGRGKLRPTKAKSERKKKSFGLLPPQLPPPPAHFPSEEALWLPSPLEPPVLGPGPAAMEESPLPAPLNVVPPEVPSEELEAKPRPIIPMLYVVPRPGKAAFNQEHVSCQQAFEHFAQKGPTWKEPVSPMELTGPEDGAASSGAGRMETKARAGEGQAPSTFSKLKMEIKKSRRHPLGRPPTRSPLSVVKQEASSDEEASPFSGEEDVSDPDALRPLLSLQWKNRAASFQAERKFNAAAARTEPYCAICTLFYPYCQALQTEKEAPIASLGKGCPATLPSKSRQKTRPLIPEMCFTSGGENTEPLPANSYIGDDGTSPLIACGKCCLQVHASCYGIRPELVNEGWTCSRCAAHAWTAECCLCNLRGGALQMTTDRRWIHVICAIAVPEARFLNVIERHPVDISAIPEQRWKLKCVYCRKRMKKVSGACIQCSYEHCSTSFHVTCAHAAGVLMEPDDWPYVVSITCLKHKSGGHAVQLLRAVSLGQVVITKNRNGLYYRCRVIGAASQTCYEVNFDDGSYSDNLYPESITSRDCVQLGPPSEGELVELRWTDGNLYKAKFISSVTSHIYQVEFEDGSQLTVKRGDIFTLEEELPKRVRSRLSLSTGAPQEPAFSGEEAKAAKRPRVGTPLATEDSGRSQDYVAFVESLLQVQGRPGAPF
Assay summary: Inhibition of human KDM4B measured by AlphaLISA assay
Measured endpoint: IC50 (µM)

- Smi: "O=C(O)c1cc(O)c(=O)c2c(O)c(O)cc(-c3ccccc3)c2c1"
  Assay target: "Lysine-specific demethylase 4B (Homo sapiens)"
  Value measured: 24.4

----------
Assay target: Lysine-specific demethylase 4A (Homo sapiens, UniProt O75164)
Assay summary: Inhibition of binding of H3K4Me3 to KDM4A tudor domain (unknown origin) measured by NanoBRET-based cellular proximity assay
pEC50: −log10 of the molar value.

- Smi: "CN(C)C[C@H]1[C@H]2CC[C@](c3ccccc3)(C2)[C@H]1O"
  pEC50: 3.98

----------
Assay target: Lysine-specific demethylase 4D (Homo sapiens)
Sequence (Q6B0I6 whole entry): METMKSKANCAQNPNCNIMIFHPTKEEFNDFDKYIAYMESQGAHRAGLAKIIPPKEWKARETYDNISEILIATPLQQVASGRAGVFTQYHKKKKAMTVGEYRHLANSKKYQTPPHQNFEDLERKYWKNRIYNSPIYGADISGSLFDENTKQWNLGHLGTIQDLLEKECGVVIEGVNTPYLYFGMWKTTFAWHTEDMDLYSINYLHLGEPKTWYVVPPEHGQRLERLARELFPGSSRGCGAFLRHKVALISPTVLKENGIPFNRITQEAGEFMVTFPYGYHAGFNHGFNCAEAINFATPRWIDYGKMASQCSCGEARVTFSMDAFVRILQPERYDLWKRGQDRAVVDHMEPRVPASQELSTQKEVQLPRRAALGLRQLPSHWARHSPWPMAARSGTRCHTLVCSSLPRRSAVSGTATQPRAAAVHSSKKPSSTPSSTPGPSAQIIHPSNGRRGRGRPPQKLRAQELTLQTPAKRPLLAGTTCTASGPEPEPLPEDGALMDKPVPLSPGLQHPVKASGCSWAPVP
Assay summary: Inhibition of KDM4D (unknown origin) measured by AlphaLisa-based screening assay

- Molecule: "CC(C)(C)OC(=O)C[C@@H]1CCN(C(c2ccc(-c3ccncc3)cc2)c2cc3c(cc2O)OCO3)C1 (stereo partly specified)"
  IC50 [nM]: 23

----------
Assay target: Lysine-specific demethylase 4A (Homo sapiens, UniProt O75164)
Sequence (O75164 whole entry): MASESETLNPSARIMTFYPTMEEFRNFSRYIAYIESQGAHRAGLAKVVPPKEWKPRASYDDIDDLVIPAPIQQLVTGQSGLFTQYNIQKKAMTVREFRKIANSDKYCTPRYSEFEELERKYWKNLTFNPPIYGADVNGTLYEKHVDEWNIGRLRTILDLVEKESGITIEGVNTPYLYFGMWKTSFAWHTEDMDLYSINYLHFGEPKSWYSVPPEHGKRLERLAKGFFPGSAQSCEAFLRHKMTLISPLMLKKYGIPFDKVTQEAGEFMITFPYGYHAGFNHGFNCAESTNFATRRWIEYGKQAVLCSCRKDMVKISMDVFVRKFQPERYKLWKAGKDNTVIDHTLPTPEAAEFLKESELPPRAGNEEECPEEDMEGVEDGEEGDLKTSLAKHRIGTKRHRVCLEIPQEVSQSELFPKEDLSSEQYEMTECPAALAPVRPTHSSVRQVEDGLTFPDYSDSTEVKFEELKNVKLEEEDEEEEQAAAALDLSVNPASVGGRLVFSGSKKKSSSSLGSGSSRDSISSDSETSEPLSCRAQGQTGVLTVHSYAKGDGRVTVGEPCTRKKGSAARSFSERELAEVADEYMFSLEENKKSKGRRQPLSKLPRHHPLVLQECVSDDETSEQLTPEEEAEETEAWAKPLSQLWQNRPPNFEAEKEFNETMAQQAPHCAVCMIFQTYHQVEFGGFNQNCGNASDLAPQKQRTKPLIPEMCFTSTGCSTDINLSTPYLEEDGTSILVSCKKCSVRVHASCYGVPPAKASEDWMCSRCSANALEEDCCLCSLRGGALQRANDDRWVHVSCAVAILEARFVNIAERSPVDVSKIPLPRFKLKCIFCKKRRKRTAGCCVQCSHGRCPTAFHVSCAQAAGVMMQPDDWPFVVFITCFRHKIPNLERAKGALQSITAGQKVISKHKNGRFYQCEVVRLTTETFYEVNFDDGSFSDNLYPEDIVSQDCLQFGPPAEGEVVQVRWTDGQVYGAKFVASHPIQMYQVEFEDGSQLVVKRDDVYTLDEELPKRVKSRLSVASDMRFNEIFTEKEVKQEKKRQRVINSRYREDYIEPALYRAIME

- Smi: "CN(C)c1ccc(/C=C/c2cc[n+](Cc3ccc(F)cc3)cc2)cc1"
  Ki (nM): 420
